Tested on: 874868-142-R-J2-PDC complex spheroids, growth % test/control;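 also: spheroids exposed to the compounds for 7 days; 100% = DMSO vehicle control viability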
Experiment: Anticancer human tumor 874868-142-R-J2-PDC patient-derived head and neck squamous carcinoma cell line growth inhibition [CLK]
Details: second compound 0.1 µM; first compound 1 µM; hits give low values
endpoint-label: viability, T/C (%)
Give bare numbers, in %.

Below: 2 compounds and their reported viability, T/C.
compound: CC(=O)O[C@H]1C(=O)[C@@]2(C)[C@H]([C@H](OC(=O)c3ccccc3)[C@]3(O)C[C@H](OC(=O)[C@H](O)[C@@H](NC(=O)c4ccccc4)c4ccccc4)C(C)=C1C3(C)C)[C@]1(OC(C)=O)CO[C@@H]1C[C@@H]2O + CNC(=O)c1ccc(Nc2nc(OC3CCCC3)c3c(-c4ccc5nc(C)oc5c4)c[nH]c3n2)c(OC)c1
viability, T/C [%]: 55.7
//
compound: CC(CO)NC(=O)c1cc(-c2ccc(Cl)cc2)nn(-c2cnn(C)c2)c1=O (stereo not drawn) + CN1CCN(c2cc(C(=O)Nc3cc4cc(-c5cnn(C)c5)ccc4cn3)ccn2)CC1
viability, T/C [%]: 67.9

Here is the next item to consider.
So what's the measured viability, T/C for this one? COC1C=CCC(C)C(C)S(=O)(=O)NC(=O)c2ccc3c(c2)N(CC2CCC21)CC1(CCCc2cc(Cl)ccc21)CO3 (stereo not drawn) + CNC(=O)c1ccc(Nc2nc(OC3CCCC3)c3c(-c4ccc5nc(C)oc5c4)c[nH]c3n2)c(OC)c1
56.6
